tested on: Escherichia coli; test: Antibacterial activity against Escherichia coli MTCC 443 after 24 hrs by tecan plate reader analysis; assay type: functional; conditions: MTCC 443, 24 h
MIC values, listed per item
Property measured: MIC (µg/mL)

- CCCCCCNC(=O)C[N+](C)(CCO)CCCCCCCCCC[N+](C)(CCO)CC(=O)NCCCCCC.O=C([O-])C(F)(F)F.O=C([O-])C(F)(F)F (stereo not given): 8
- CCCCCCCCCCCCNC(=O)C[N+](C)(CCO)CCCCCCCCCCCC[N+](C)(CCO)CC(=O)NCCCCCCCCCCCC.[Br-].[Br-] (stereo not given): 32
- CCCCCCCCCCNC(=O)C[N+](C)(CCO)CCC[N+](C)(CCO)CC(=O)NCCCCCCCCCC.[Br-].[Br-] (stereo not given): 1
- CCCCCCCCNC(=O)C[N+](C)(CCO)CCCCCCCCCC[N+](C)(CCO)CC(=O)NCCCCCCCC.[Br-].[Br-] (stereo not given): 0.5
- CCCCCCCCCCCCNC(=O)C[N+](C)(CCO)CCCCCC[N+](C)(CCO)CC(=O)NCCCCCCCCCCCC.[Br-].[Br-] (stereo not given): 8
- CCCCCCCCNC(=O)C[N+](C)(CCO)CCC[N+](C)(CCO)CC(=O)NCCCCCCCC.[Br-].[Br-] (stereo not given): 16
- CCCCCCCCCCCCNC(=O)C[N+](C)(CCO)CCC[N+](C)(CCO)CC(=O)NCCCCCCCCCCCC.[Br-].[Br-] (stereo not given): 16
- CCCCCCCCCCNC(=O)C[N+](C)(CCO)CCCCCCCC[N+](C)(CCO)CC(=O)NCCCCCCCCCC.[Br-].[Br-] (stereo not given): 1
- CCCCCCNC(=O)C[N+](C)(CCO)CCCCCCCC[N+](C)(CCO)CC(=O)NCCCCCC.O=C([O-])C(F)(F)F.O=C([O-])C(F)(F)F (stereo not given): 256
- CCCCCCCCCCNC(=O)C[N+](C)(CCO)CCCCCCCCCC[N+](C)(CCO)CC(=O)NCCCCCCCCCC.[Br-].[Br-] (stereo not given): 2
